tested on: LOX IMVI; assay: NCI tumour cell line growth inhibition, 48 h
The source made the active and inactive calls. Rule as the data show it: active = GI50 up to about 1.1 µM and inactive = higher.
REPORTED PROPERTY: GI50

O=C(O)c1c(-c2c3ccc(=O)cc-3oc3cc(O)ccc23)cc2ccccc2c1-c1ccccc1
> 100 µM (inactive)

Query (compound): O=C(c1ccccc1)N(CCCCNC(=O)C(F)(F)F)CCCNC(=O)C(F)(F)F ; field requested: GI50 > 100 µM (inactive)

Would you kindly repeat that for CC12O[Te]34OC1(C)C(C)(O3)C2(C)O4 ? 3.56 µM (inactive)

Would you kindly repeat that for O=C(CCN(C(=O)O)S(=O)(=O)c1ccc(NC(=O)c2ccccc2)cc1)Nc1ccccc1 ? > 57.7 µM (inactive)

Would you kindly repeat that for CCN(CC)CCCN1CCc2c([nH]c3ccccc23)C1c1cccnc1 (stereo not given) ? > 100 µM (inactive)

Would you kindly repeat that for CC1=NN2C(c3ccc([N+](=O)[O-])cc3)=CSC2=NC(C)(C)C1 ? > 100 µM (inactive)

Would you kindly repeat that for CC(=O)NC(C)c1ccc(/N=N/N2CCCC2)cc1 (stereo not given) ? > 100 µM (inactive)

Would you kindly repeat that for COc1nc(=O)n(C2CC(F)C(CO)O2)cc1C (stereo not given) ? > 100 µM (inactive)

Would you kindly repeat that for O=c1oc2ccc(Cl)cc2cc1C1=CSC2=NCCN12 ? 18.9 µM (inactive)
